B1: Osa-1-4 twister ribozyme (parent)
chain: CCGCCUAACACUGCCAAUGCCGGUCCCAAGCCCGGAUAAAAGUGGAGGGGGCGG

Variants of: B1
Measurement notes: self-cleavage, relative activity (ratio to wild type); higher = more cleavage; co-transcriptional
Classification field: enter MET for self-cleavage values not below 0.06, NOT MET for values below it.

Challenge: Textbook exercise: given the entry C15U G53U , state whether its self-cleavage is greater than or equal to 0.06.
Response given: MET

Challenge: Could you please find out whether G47C G54C has self-cleavage that meets 0.06 or exceeds it?
Response given: MET

Challenge: API: above_or_equal(metric=self-cleavage, cutoff=0.06) for item C25U G48U
Response given: NOT MET

Challenge: Textbook exercise: given the entry G50A U24A , state whether its self-cleavage is greater than or equal to 0.06.
Response given: MET

Challenge: Quick check, self-cleavage >= 0.06? G47U U37G
Response given: MET

Challenge: Confirm if self-cleavage reported for the variant C26A G50C is 0.06 or above.
Response given: NOT MET

Challenge: Decide: self-cleavage of A46G C26G >= 0.06?
Response given: NOT MET

Challenge: Form field: self-cleavage at least 0.06? Entry: G23C U12G
Response given: NOT MET

Challenge: Check if self-cleavage >= 0.06 (inclusive). Item: C21U U43C
Response given: MET

Challenge: In plain terms: is recorded self-cleavage at least 0.06 for A29G G44C ?
Response given: MET

src = the RNAGym collection of RNA variant scans (doi:10.1002/anie.201605470)
